- subject of test: T1, Mint1 PTB + TJAP1 (9-22) (human, UniProt Q02410 448-623)
- T1 construct: human Mint1 PTB domain, residues 448-623, as m35; human tight junction-associated protein 1 residues 9-22, as m37; source: mixed from purified m35 and the synthetic peptide m37
- assay info: ITC; as a5, competition experiment with the other peptide (APP 750-769 or TJAP1 9-22) present with Mint1 PTB in the cell
- experimental conditions: both partners purified
measurement name: pKd
Lab note — pKd values are minus log10 of concentrations in M.

Item under review: SKMQQNGYENPTYKFFEQMQ (human amyloid precursor protein residues 750-769; also called APP NPxY peptide; source: synthetic peptide (solid phase synthesis in-house, reverse-phase HPLC)) [APP (750-769) peptide] . Reported pKd?
6.24
